biological target: Neuropeptide FF receptor 2 (Homo sapiens); test: Displacement of [3H]EYF from human NPFF2 receptor expressed in CHO cells after 1 hr by liquid scintillation counting analysis; format: cell-based
Sequence (Q9Y5X5 whole entry): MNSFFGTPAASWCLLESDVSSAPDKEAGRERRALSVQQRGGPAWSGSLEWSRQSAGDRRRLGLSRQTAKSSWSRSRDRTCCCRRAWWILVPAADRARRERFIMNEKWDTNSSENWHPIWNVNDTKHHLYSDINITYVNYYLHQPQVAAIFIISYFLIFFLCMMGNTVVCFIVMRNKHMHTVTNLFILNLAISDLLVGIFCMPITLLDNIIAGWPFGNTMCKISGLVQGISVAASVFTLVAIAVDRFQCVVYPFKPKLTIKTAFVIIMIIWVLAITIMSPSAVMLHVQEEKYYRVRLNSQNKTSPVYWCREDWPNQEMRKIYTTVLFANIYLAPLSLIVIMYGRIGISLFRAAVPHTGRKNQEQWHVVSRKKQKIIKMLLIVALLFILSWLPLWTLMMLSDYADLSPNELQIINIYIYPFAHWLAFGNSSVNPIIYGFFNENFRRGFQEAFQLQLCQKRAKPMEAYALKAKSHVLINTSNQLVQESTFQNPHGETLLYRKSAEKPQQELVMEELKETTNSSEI
pKi: −log10 of the molar value.
pKi overview

{"columns": ["SMILES STRING", "SYSTEM UNDER TEST", "pKi"],
 "data": [
  ["N=C(N)NCCC(=O)NCC1(Nc2ccccc2)CCN(Cc2ccccc2)CC1", "Neuropeptide FF receptor 2 (Homo sapiens)", 5.54],
  ["N=C(N)NCC(=O)NCC1(Nc2ccccc2)CCNCC1", "Neuropeptide FF receptor 2 (Homo sapiens)", 5.56],
  ["N=C(N)NCC(=O)NCC1(Nc2ccccc2)CCN(Cc2ccccc2)CC1", "Neuropeptide FF receptor 2 (Homo sapiens)", 6.39],
  ["N=C(N)NCC(=O)NCC1(c2ccccc2)CCN(Cc2ccccc2)CC1", "Neuropeptide FF receptor 2 (Homo sapiens)", 5.46],
  ["N=C(N)NCC(=O)NCC1(CCc2ccccc2)CCN(Cc2ccccc2)CC1", "Neuropeptide FF receptor 2 (Homo sapiens)", 6.33],
  ["N=C(N)NCC(=O)NCC1(Nc2ccccc2)CCN(CCc2ccccc2)CC1", "Neuropeptide FF receptor 2 (Homo sapiens)", 6.48],
  ["N=C(N)NCC(=O)NCC1(Cc2ccccc2)CCN(Cc2ccccc2)CC1", "Neuropeptide FF receptor 2 (Homo sapiens)", 7.08],
  ["COc1cc(NC2(CNC(=O)CNC(=N)N)CCN(Cc3ccccc3)CC2)cc(OC)c1", "Neuropeptide FF receptor 2 (Homo sapiens)", 6.01],
  ["N=C(N)NCC(=O)NCC1(Nc2ccccc2)CCN(Cc2ccc(Br)cc2)CC1", "Neuropeptide FF receptor 2 (Homo sapiens)", 6.34],
  ["N=C(N)NCC(=O)NCC1(Nc2ccccc2)CCN(Cc2cccc3ccccc23)CC1", "Neuropeptide FF receptor 2 (Homo sapiens)", 6.89],
  ["COC(=O)c1ccc(CN2CCC(CNC(=O)CNC(=N)N)(Nc3ccccc3)CC2)cc1", "Neuropeptide FF receptor 2 (Homo sapiens)", 5.82],
  ["N=C(N)NCC(=O)NCC1(Cc2cccc3ccccc23)CCN(Cc2ccccc2)CC1", "Neuropeptide FF receptor 2 (Homo sapiens)", 7.52],
  ["N=C(N)NCC(=O)NCC1(Nc2ccc(Cl)c(Cl)c2)CCN(Cc2ccccc2)CC1", "Neuropeptide FF receptor 2 (Homo sapiens)", 6.39],
  ["N=C(N)NCC(=O)NCC1(Cc2ccc(-c3ccccc3)cc2)CCN(Cc2ccccc2)CC1", "Neuropeptide FF receptor 2 (Homo sapiens)", 6.04],
  ["N=C(N)NCC(=O)NCC1(Nc2ccccc2)CCN(CC2CCCCC2)CC1", "Neuropeptide FF receptor 2 (Homo sapiens)", 6.53],
  ["N=C(N)NCCNC(=O)C1(Nc2ccccc2)CCN(Cc2ccccc2)CC1", "Neuropeptide FF receptor 2 (Homo sapiens)", 5.85],
  ["N=C(N)NCC(=O)NCC1(Nc2ccccc2)CCN(Cc2ccc3ccccc3c2)CC1", "Neuropeptide FF receptor 2 (Homo sapiens)", 6.30],
  ["N=C(N)NCC(=O)NCC1(Cc2ccc(Cl)c(Cl)c2)CCN(Cc2ccccc2)CC1", "Neuropeptide FF receptor 2 (Homo sapiens)", 7.09],
  ["N=C(N)NCC(=O)NCC1(Nc2cccc3ccccc23)CCN(Cc2ccccc2)CC1", "Neuropeptide FF receptor 2 (Homo sapiens)", 6.51],
  ["COc1cccc(NC2(CNC(=O)CNC(=N)N)CCN(Cc3ccccc3)CC2)c1", "Neuropeptide FF receptor 2 (Homo sapiens)", 6.05],
  ["N=C(N)NCC(=O)NCC1(Cc2ccc3ccccc3c2)CCN(Cc2ccccc2)CC1", "Neuropeptide FF receptor 2 (Homo sapiens)", 6.69]
]}

###

species on record: Homo sapiens; assay: Selectivity ratio of Ki for human NPFF1 receptor to Ki for human NPFF2 receptor
PROPERTY: Ratio Ki

{"columns": ["SMILES STRING", "PROPERTY", "MEASUREMENT"],
 "data": [
  ["N=C(N)NCCC[C@H](N)C(=O)NCC1(Nc2ccccc2)CCN(Cc2ccc3ccccc3c2)CC1", "Ratio Ki", 1.6],
  ["N=C(N)NCC(=O)NCC1(Cc2ccc(Cl)c(Cl)c2)CCN(Cc2ccccc2)CC1", "Ratio Ki", 5.3],
  ["N=C(N)NCC(=O)NCC1(Cc2ccc3ccccc3c2)CCN(Cc2ccccc2)CC1", "Ratio Ki", 1.5],
  ["N=C(N)NCC(=O)NCC1(Nc2ccccc2)CCN(CCc2ccccc2)CC1", "Ratio Ki", 3.2],
  ["N=C(N)NCC(=O)NCC1(Nc2ccccc2)CCN(Cc2cccc3ccccc23)CC1", "Ratio Ki", 4.2],
  ["N=C(N)NCC(=O)NCC1(Nc2ccccc2)CCN(CC2CCCCC2)CC1", "Ratio Ki", 5.5]
]}

###

biological target: Neuropeptide FF receptor 1 (Homo sapiens, UniProt Q9GZQ6); assay: Displacement of [125I]YVP from human NPFF1 receptor expressed in CHO cells after 1 hr by liquid scintillation counting analysis; format: cell-based
Sequence (Q9GZQ6 whole entry): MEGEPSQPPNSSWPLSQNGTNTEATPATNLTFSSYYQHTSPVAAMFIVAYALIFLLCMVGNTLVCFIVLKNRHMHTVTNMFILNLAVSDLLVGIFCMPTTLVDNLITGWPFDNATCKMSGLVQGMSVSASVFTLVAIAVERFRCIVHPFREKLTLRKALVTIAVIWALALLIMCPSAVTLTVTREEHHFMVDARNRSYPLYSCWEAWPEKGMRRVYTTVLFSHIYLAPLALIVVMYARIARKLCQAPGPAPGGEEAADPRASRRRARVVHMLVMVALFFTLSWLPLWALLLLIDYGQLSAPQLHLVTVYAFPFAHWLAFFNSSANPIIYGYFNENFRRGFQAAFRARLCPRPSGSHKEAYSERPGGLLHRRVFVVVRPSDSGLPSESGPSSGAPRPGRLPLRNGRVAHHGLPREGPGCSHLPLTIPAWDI

{"columns": ["SMILES STRING", "OPERATOR", "Ki, nM"],
 "data": [
  ["N=C(N)NCCC[C@H](N)C(=O)NCC1(Nc2ccccc2)CCN(Cc2ccccc2)CC1", "=", 487],
  ["N=C(N)NCC1(Nc2ccccc2)CCN(Cc2ccccc2)CC1", "=", 1880],
  ["N=C(N)NCCC[C@H](N)C(=O)NCC1(Nc2ccccc2)CCN(CCc2ccccc2)CC1", "=", 2910],
  ["N=C(N)NCCC[C@H](N)C(=O)NCC1(Nc2ccccc2)CCN(Cc2ccc3ccccc3c2)CC1", "=", 479],
  ["CN1CCC(CNC(=O)[C@@H](N)CCCNC(=N)N)(Nc2ccccc2)CC1", ">", 5000],
  ["CN1CCC(CNC(=N)N)(Nc2ccccc2)CC1", ">", 5000],
  ["N=C(N)NCCC[C@H](N)C(=O)NCC1CCN(Cc2ccccc2)CC1", ">", 5000],
  ["N=C(N)NCC1(Nc2ccccc2)CCN(CCc2ccccc2)CC1", "=", 2960]
]}

###

molecular target: Neuropeptide FF receptor 1 (Homo sapiens); assay: Agonist activity at human NPFF1 receptor expressed in CHO cells assessed as inhibition of forskolin-induced intracellular cAMP accumulation by liquid scintillation counting analysis; type: functional, cell-based
EC50 overview

{"columns": ["SMILES STRING", "EC50"],
 "data": [
  ["COc1cc(NC2(CNC(=O)CNC(=N)N)CCN(Cc3ccccc3)CC2)cc(OC)c1", "> 10 µM"],
  ["N=C(N)NCC(=O)NCC1(Nc2cccc3ccccc23)CCN(Cc2ccccc2)CC1", "> 10 µM"]
]}

###

target: Neuropeptide FF receptor 1 (Homo sapiens); experiment: Displacement of [3H]NPVF from human NPFF1 receptor expressed in CHO cells after 1 hr by liquid scintillation counting analysis; type: cell-based
pKi: −log10 of the molar value.
PROPERTY: pKi

{"columns": ["SMILES STRING", "MEASUREMENT"],
 "data": [
  ["N=C(N)NCC(=O)NCC1(CCc2ccccc2)CCN(Cc2ccccc2)CC1", 6.82],
  ["N=C(N)NCC(=O)NCC1(Cc2ccc(-c3ccccc3)cc2)CCN(Cc2ccccc2)CC1", 6.53],
  ["N=C(N)NCC(=O)NCC1(Cc2ccccc2)CCN(Cc2ccccc2)CC1", 6.38],
  ["N=C(N)NCC(=O)NCC1(Cc2cccc3ccccc23)CCN(Cc2ccccc2)CC1", 6.95],
  ["N=C(N)NCCNC(=O)C1(Nc2ccccc2)CCN(Cc2ccccc2)CC1", 7.09]
]}

###

molecular target: Neuropeptide FF receptor 1 (Homo sapiens, UniProt Q9GZQ6); assay: Displacement of [3H]NPVF from human NPFF1 receptor expressed in CHO cells after 1 hr by liquid scintillation counting analysis; type: cell-based
pKi: −log10 of the molar value.

{"columns": ["SMILES STRING", "pKi"],
 "data": [
  ["N=C(N)NCC(=O)NCC1(Nc2ccc(Cl)c(Cl)c2)CCN(Cc2ccccc2)CC1", 6.72],
  ["COc1cccc(NC2(CNC(=O)CNC(=N)N)CCN(Cc3ccccc3)CC2)c1", 6.70],
  ["N=C(N)NCC(=O)NCC1(c2ccccc2)CCN(Cc2ccccc2)CC1", 6.29],
  ["N=C(N)NCC(=O)NCC1(Nc2ccccc2)CCN(CC2CCCCC2)CC1", 5.79],
  ["N=C(N)NCC(=O)NCC1(Nc2ccccc2)CCN(Cc2ccc3ccccc3c2)CC1", 6.85],
  ["COc1cc(NC2(CNC(=O)CNC(=N)N)CCN(Cc3ccccc3)CC2)cc(OC)c1", 6.94],
  ["N=C(N)NCC(=O)NCC1(Cc2ccc(Cl)c(Cl)c2)CCN(Cc2ccccc2)CC1", 6.36],
  ["N=C(N)NCC(=O)NCC1(Nc2ccccc2)CCNCC1", 4.82],
  ["N=C(N)NCC(=O)NCC1(Nc2ccccc2)CCN(Cc2cccc3ccccc23)CC1", 6.27],
  ["N=C(N)NCCC(=O)NCC1(Nc2ccccc2)CCN(Cc2ccccc2)CC1", 6.36],
  ["N=C(N)NCC(=O)NCC1(Nc2ccccc2)CCN(Cc2ccccc2)CC1", 6.50],
  ["N=C(N)NCC(=O)NCC1(Nc2cccc3ccccc23)CCN(Cc2ccccc2)CC1", 7.03],
  ["N=C(N)NCC(=O)NCC1(Nc2ccccc2)CCN(CCc2ccccc2)CC1", 5.98],
  ["COC(=O)c1ccc(CN2CCC(CNC(=O)CNC(=N)N)(Nc3ccccc3)CC2)cc1", 6.47],
  ["N=C(N)NCC(=O)NCC1(Nc2ccccc2)CCN(Cc2ccc(Br)cc2)CC1", 6.95],
  ["N=C(N)NCC(=O)NCC1(Cc2ccc3ccccc3c2)CCN(Cc2ccccc2)CC1", 6.50]
]}
